These entries and their values trace back to patent US20120277164A1.

# study.target: T1, Gadd45β/MKK7 complex (biotin-hGadd45β with coated GST-MKK7, ELISA format) (human) (UniProt O75293)
# T1 sequence (biotinylated (sites not stated), looked up) 1: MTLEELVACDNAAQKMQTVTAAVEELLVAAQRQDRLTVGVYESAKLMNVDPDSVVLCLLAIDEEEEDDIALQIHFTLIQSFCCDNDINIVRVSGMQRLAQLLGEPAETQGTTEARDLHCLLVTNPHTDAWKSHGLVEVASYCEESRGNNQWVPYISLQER
# T1 sequence (biotinylated (sites not stated), looked up) 2: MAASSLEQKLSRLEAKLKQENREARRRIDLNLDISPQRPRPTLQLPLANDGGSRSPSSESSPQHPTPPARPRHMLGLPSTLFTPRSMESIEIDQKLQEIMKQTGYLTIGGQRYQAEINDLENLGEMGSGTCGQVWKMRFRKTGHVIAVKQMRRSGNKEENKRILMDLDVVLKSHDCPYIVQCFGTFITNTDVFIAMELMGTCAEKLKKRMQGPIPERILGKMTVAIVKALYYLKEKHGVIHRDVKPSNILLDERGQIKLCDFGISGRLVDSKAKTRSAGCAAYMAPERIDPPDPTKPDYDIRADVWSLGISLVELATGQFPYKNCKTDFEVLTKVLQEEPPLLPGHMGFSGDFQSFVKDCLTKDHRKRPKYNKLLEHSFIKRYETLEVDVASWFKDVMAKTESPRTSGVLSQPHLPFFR
# protocol.description: competition ELISA; coated GST-MKK7 42 nM, biotin-hGadd45β 21 nM
Square brackets hold non-standard residues; d marks the D form.
Entries and their measured pIC50 follow.
Reminder that pIC50 is minus the log10 of a molar concentration.

Please review the entries below; each comes with its answer.
# binder, pIC50
measured = [
    ("Ac-[dY][dN][dR][dF]-NH2 (also: D/L configuration not given here) [Ac-Tyr-Asn-Arg-Phe-NH2]", 8.00),
    ("Ac-[dY][dL][dR][dF]-NH2 (also: D/L configuration not given here) [Ac-Tyr-Leu-Arg-Phe-NH2]", 8.30),
]

Next:
Input: # lookup: pIC50 of Ac-[dY][dQ][dR][dF]-NH2 (also: D/L configuration not given here) [Ac-Tyr-Gln-Arg-Phe-NH2]
Output: 8.30
